- target: Full length LIGHT R189A on HEK293FF cells (Homo sapiens (Human), UniProt O43557 1-240)
- Sequence (O43557 whole entry R189A): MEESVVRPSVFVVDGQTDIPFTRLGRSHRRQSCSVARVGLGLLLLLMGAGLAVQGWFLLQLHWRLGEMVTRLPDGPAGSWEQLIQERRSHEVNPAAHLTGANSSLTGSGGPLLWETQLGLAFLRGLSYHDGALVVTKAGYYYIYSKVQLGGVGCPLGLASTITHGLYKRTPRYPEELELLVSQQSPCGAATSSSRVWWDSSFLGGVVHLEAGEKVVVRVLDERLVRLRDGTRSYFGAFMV
- testProtocol: flow cytometry, HEK293FF, mAb at EC50
reportedProperty: % of WT binding (%)

INSERT INTO results (binder, reportedproperty, recordednumber) VALUES
  ('3A07 chimeric IgG4 mAb (antibody, V domains shown, Chimeric human IgG4 (S-to-P, L-to-E) with human CL, as m1; also called Parental 3A07) VH: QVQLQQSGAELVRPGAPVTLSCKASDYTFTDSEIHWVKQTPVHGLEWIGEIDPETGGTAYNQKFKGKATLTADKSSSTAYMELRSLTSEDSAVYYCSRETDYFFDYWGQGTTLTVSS VL: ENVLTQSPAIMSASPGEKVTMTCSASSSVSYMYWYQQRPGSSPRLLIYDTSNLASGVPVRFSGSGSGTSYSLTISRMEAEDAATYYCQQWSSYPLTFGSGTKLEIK', '% of WT binding', 0),
  ('3D12 chimeric IgG4 mAb (antibody, V domains shown, Chimeric human IgG4 (S-to-P, L-to-E) with human CL, as m1; also called Parental 3D12; 03D12) VH: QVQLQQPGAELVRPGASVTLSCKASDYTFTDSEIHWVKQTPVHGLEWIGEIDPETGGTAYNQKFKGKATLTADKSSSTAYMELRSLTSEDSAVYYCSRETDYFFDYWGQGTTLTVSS VL: DIQMTQSPASLSASVGETVTITCGASENIYGALNWYQRKQGKSPQLLIYGATNLADGMSSRFSGSGSGRQYSLKISSLHPDDVATYYCQNVLSTPWTFGGGTKLEIK', '% of WT binding', 1),
  ('3C10 chimeric IgG4 mAb (antibody, V domains shown, Chimeric human IgG4 (S-to-P, L-to-E) with human CL, as m1; also called Parental 3C10) VH: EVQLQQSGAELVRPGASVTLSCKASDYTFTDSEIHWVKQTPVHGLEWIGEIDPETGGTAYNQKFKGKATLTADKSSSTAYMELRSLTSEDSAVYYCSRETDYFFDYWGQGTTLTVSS VL: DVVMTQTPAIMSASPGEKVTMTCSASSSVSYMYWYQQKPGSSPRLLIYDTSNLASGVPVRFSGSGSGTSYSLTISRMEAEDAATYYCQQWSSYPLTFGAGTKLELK', '% of WT binding', 0);
